Catalogue of IC50 readings, one per entry.
# measurement target: recombinant human TRKA (G595R) (Homo sapiens, UniProt P04629, G595R)
# Sequence (P04629 33-796 G595R): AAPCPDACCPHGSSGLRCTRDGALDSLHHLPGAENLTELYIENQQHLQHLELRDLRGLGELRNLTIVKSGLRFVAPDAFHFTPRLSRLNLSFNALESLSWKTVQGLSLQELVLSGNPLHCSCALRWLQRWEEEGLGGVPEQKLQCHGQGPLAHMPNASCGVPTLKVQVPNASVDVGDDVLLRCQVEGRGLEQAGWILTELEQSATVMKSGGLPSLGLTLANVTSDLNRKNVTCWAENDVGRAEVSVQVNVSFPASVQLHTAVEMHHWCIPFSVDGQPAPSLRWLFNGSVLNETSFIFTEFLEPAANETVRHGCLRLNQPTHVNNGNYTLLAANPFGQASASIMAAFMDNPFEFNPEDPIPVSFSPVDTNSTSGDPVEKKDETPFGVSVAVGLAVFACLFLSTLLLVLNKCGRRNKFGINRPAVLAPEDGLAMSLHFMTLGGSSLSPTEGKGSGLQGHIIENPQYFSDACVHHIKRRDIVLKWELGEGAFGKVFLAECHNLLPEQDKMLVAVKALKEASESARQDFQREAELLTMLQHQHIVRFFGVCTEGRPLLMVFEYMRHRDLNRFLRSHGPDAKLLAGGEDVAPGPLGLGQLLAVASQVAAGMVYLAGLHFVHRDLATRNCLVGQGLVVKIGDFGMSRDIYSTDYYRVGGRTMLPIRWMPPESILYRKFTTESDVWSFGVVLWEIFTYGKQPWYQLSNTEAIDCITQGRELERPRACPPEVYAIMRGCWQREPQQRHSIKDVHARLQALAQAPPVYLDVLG
# protocol description: In vitro activity test on mutant TRKA (G595R) (HTRF KinEASE TK)
# protocol conditions: 4.5 μM ATP, 30 min

[[record]]
smiles = "Fc1ccc(F)c([C@H]2CCCN2c2ccc3ncc(F)c(-c4cnn(C5CCNCC5)c4)c3n2)c1"
endpoint_value = "< 1 nM"

[[record]]
smiles = "O[C@H]1CCN(c2cnn(-c3ncnc4ccc(N5C[C@@H](F)C[C@@H]5c5cc(F)ccc5F)nc34)c2)C1"
endpoint_value = "< 10 nM"


Q. Given the entry `O[C@H]1CCN(C(=S)Nc2ccnc3ccc(N4C[C@@H](F)C[C@@H]4c4cc(F)ccc4F)nc23)C1` , what IC50 was observed with recombinant human TRKA (G595R) (Homo sapiens, UniProt P04629, G595R)?
A. < 1 nM

Q. Another: `Fc1ccc(F)c([C@H]2C[C@H](F)CN2c2ccc3ncc(Cl)c(-c4cnn(C5CCNCC5)n4)c3n2)c1`
A. < 10 nM

Q. Another: `Fc1ccc(F)c([C@H]2C[C@H](F)CN2c2ccc3ncnc(-n4cc(C5CCNCC5)cn4)c3n2)c1`
A. < 1 nM

Q. Another: `OC[C@H](O)CN1CCC(n2cc(-c3c(Cl)cnc4ccc(N5C[C@@H](F)C[C@@H]5c5cc(F)ccc5F)nc34)cn2)CC1`
A. < 1 nM

Q. Another: `Fc1ccc(F)c([C@H]2C[C@H](F)CN2c2ccc3ncc(Cl)c(-c4nnc(C5CCNCC5)o4)c3n2)c1`
A. < 10 nM

Q. Another: `Fc1ccc(F)c([C@H]2CCCN2c2ccc3nccc(-c4cnn(C5CCNCC5)c4F)c3n2)c1`
A. < 1 nM

Q. Another: `Fc1ccc(F)c([C@H]2C[C@H](F)CN2c2ccc3ncc(Cl)c(-c4cnn([C@@H]5CCCNC5)c4)c3n2)c1`
A. < 10 nM

====

Catalogue of IC50 readings, one per entry.
# measurement target: recombinant human TRKA (G667C) (Homo sapiens, UniProt P04629, G667C)
# Sequence (P04629 33-796 G667C): as the sequence (P04629 33-796 G595R) above, with R563G, G635C counted along it
# protocol description: In vitro activity test on mutant TRKA (G667C) (HTRF KinEASE TK)
# protocol conditions: 5.5 μM ATP, 30 min

// below: answered compounds
[[record]]
compound = "Fc1ccc(F)c([C@H]2CCCN2c2ccc3nccc(-c4cnn(C5CCNCC5)c4F)c3n2)c1 [Example 15]"
measure_name = "IC50"
endpoint_value = "< 10 nM"

[[record]]
compound = "Fc1ccc(F)c([C@H]2C[C@H](F)CN2c2ccc3ncnc(-c4cnn(C5CCNCC5)c4)c3n2)c1 [Example 46]"
measure_name = "IC50"
endpoint_value = "< 1 nM"

[[record]]
compound = "Fc1ccc(F)c([C@H]2C[C@H](F)CN2c2ccc3nccc(-c4cnn(C5CCNCC5)c4)c3n2)c1 [Example 11]"
measure_name = "IC50"
endpoint_value = "< 1 nM"

[[record]]
compound = "Fc1ccc(F)c([C@H]2CCCN2c2ccc3ncc(F)c(-c4cnn(C5CCNCC5)c4)c3n2)c1 [Example 21]"
measure_name = "IC50"
endpoint_value = "< 10 nM"

[[record]]
compound = "NC(=O)CN1CCC(n2cc(-c3c(F)cnc4ccc(N5C[C@@H](F)C[C@@H]5c5cc(F)ccc5F)nc34)cn2)CC1 [Example 74]"
measure_name = "IC50"
endpoint_value = "< 10 nM"

[[record]]
compound = "OC[C@H](O)CN1CCC(n2cc(-c3c(Cl)cnc4ccc(N5C[C@@H](F)C[C@@H]5c5cc(F)ccc5F)nc34)cn2)CC1 [Example 40]"
measure_name = "IC50"
endpoint_value = "< 1 nM"

[[record]]
compound = "O=S1(=O)CCC(n2cc(-c3c(Cl)cnc4ccc(N5C[C@@H](F)C[C@@H]5c5cc(F)ccc5F)nc34)cn2)CC1 [Example 47]"
measure_name = "IC50"
endpoint_value = "< 1 nM"


Would you kindly look at the next entry?
Q. # IC50 lookup, item O[C@H]1CCN(c2nc(-c3c(F)cnc4ccc(N5C[C@@H](F)C[C@@H]5c5cc(F)ccc5F)nc34)no2)C1 [Example 77]
A. < 50 nM

====

# measurement target: Recombinant human TRKB (Homo sapiens)
# Sequence (Q16620 32-822): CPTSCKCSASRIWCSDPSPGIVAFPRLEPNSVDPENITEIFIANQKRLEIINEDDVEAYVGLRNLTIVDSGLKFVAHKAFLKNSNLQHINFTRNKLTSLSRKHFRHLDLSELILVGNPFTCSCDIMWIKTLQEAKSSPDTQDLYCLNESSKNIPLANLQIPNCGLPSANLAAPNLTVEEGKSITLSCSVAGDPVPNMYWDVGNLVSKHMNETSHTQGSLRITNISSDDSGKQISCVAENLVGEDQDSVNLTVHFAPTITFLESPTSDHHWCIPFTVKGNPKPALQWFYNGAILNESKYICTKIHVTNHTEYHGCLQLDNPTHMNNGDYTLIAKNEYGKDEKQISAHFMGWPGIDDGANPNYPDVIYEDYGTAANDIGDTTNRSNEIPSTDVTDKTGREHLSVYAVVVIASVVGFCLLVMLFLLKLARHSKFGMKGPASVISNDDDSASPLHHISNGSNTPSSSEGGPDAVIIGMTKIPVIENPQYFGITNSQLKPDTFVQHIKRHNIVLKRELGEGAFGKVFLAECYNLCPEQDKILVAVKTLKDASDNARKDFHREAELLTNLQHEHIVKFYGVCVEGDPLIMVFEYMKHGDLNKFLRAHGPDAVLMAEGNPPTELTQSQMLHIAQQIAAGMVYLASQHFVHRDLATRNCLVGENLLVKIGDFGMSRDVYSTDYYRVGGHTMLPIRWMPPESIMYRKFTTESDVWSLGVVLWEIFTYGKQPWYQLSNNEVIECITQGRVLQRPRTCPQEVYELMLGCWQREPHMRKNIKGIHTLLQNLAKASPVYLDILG
# protocol description: In vitro activity test on TRKB kinase (HTRF KinEASE TK)
# protocol conditions: 4.77 μM ATP, 50 min
measure name: IC50

[[record]]
molecule = "O=C(Nc1ccnc2ccc(N3C[C@@H](F)C[C@@H]3c3cc(F)ccc3F)nc12)N1CC[C@H](O)C1 [Example 26]"
measure_name = "IC50"
endpoint_value = "< 1 nM"

[[record]]
molecule = "CS(=O)(=O)n1cc(-c2c(Cl)cnc3ccc(N4C[C@@H](F)C[C@@H]4c4cc(F)ccc4F)nc23)cn1 [Example 25]"
measure_name = "IC50"
endpoint_value = "< 1 nM"

[[record]]
molecule = "OCCN1CCC(n2cc(-c3c(Cl)cnc4ccc(N5C[C@@H](F)C[C@@H]5c5cc(F)ccc5F)nc34)cn2)CC1 [Example 32]"
measure_name = "IC50"
endpoint_value = "< 1 nM"

[[record]]
molecule = "Fc1ccc(F)c([C@H]2C[C@H](F)CN2c2ccc3ncc(Cl)c(-c4cnc(C5CCNCC5)s4)c3n2)c1 [Example 50]"
measure_name = "IC50"
endpoint_value = "< 10 nM"

[[record]]
molecule = "Fc1ccc(F)c([C@H]2C[C@H](F)CN2c2ccc3ncc(F)c(-c4noc(C5CCNCC5)n4)c3n2)c1 [Example 73]"
measure_name = "IC50"
endpoint_value = "< 10 nM"


Q. # IC50 lookup, item O=C1CNCCN1c1ccc(-c2c(F)cnc3ccc(N4C[C@@H](F)C[C@@H]4c4cc(F)ccc4F)nc23)cn1 [Example 97]
A. < 10 nM

Q. Another: O[C@H]1CCN(c2cnn(-c3ncnc4ccc(N5C[C@@H](F)C[C@@H]5c5cc(F)ccc5F)nc34)c2)C1 [Example 70]
A. < 1 nM

Q. Another: Fc1ccc(F)c([C@H]2C[C@H](F)CN2c2ccc3ncnc(-c4cnn(C5CCNCC5)c4)c3n2)c1 [Example 46]
A. < 1 nM

Q. Another: O[C@H]1CCN(c2ncnc3ccc(N4C[C@@H](F)C[C@@H]4c4cc(F)ccc4F)nc23)C1 [Example 71]
A. < 1 nM

Q. Another: O[C@H]1CCN(c2ncc(-c3ncnc4ccc(N5C[C@@H](F)C[C@@H]5c5cc(F)ccc5F)nc34)cn2)C1 [Example 72]
A. < 1 nM

Q. Another: CN1CCC(n2cc(-c3c(Cl)cnc4ccc(N5C[C@@H](F)C[C@@H]5c5cc(F)ccc5F)nc34)cn2)CC1 [Example 43]
A. < 1 nM

====

Catalogue of IC50 readings, one per entry.
# measurement target: Recombinant human TRKA (Homo sapiens)
# Sequence (P04629 33-796): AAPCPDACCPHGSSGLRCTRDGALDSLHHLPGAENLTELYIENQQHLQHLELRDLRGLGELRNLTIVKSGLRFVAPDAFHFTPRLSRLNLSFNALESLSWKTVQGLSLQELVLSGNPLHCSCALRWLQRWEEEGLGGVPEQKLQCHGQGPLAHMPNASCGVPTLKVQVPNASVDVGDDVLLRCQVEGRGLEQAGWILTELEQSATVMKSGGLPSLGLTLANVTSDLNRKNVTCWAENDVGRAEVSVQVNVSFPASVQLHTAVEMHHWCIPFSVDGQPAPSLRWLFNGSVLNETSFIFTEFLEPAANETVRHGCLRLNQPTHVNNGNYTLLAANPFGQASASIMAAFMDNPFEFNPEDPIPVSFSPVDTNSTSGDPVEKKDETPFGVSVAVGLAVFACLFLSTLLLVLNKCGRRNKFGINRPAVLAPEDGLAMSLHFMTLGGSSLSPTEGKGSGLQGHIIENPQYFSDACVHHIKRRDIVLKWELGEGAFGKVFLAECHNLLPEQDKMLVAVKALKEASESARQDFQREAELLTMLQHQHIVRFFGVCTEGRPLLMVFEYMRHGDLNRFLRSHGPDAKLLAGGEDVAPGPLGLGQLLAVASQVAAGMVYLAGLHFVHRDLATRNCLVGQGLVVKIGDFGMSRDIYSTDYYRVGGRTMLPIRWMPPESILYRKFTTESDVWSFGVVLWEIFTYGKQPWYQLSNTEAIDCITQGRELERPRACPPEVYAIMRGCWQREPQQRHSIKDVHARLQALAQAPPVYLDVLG
# protocol description: In vitro activity test on TRKA kinase (HTRF KinEASE TK)
# protocol conditions: 14.68 μM ATP, 40 min

[[record]]
smiles = "Fc1ccc(F)c([C@H]2CCCN2c2ccc3ncc(Cl)c(-c4cnn(C5CCNCC5)c4)c3n2)c1"
measure_name = "IC50"
endpoint_value = "< 1 nM"

[[record]]
smiles = "O=C(Nc1ccnc2ccc(N3C[C@@H](F)C[C@@H]3c3cc(F)ccc3F)nc12)N1CC[C@H](O)C1"
measure_name = "IC50"
endpoint_value = "< 1 nM"

[[record]]
smiles = "O[C@H]1CCN(c2ncc(-c3ncnc4ccc(N5C[C@@H](F)C[C@@H]5c5cc(F)ccc5F)nc34)cn2)C1"
measure_name = "IC50"
endpoint_value = "< 1 nM"

[[record]]
smiles = "OC[C@@H](O)CN1CCC(n2cc(-c3c(Cl)cnc4ccc(N5C[C@@H](F)C[C@@H]5c5cc(F)ccc5F)nc34)cn2)CC1"
measure_name = "IC50"
endpoint_value = "< 1 nM"

[[record]]
smiles = "O[C@H]1CCN(c2nc(-c3ncnc4ccc(N5C[C@@H](F)C[C@@H]5c5cc(F)ccc5F)nc34)no2)C1"
measure_name = "IC50"
endpoint_value = "< 1 nM"


Q. # IC50 lookup, item `Fc1ccc(F)c([C@H]2C[C@H](F)CN2c2ccc3ncc(Cl)c(-c4ccc(C5CCNCC5)nc4)c3n2)c1`
A. < 1 nM

Q. Another: `OCCNc1ccnc2ccc(N3CCC[C@@H]3c3cc(F)ccc3F)nc12`
A. < 100 nM

Q. Another: `Fc1ccc(F)c([C@H]2CCCN2c2ccc3ncc(F)c(-c4cnn(C5CNC5)c4)c3n2)c1`
A. < 10 nM

Q. Another: `Fc1ccc(F)c([C@H]2C[C@H](F)CN2c2ccc3ncc(F)c(-c4noc(C5CCNCC5)n4)c3n2)c1`
A. < 1 nM

====

Catalogue of pIC50 readings, one per entry.
# measurement target: recombinant human TRKA (G667C) (Homo sapiens, UniProt P04629, G667C)
# protocol description: In vitro activity test on mutant TRKA (G667C) (HTRF KinEASE TK)
# protocol conditions: 5.5 μM ATP, 30 min
pIC50: −log10 of the molar value.

// below: answered molecules
[[record]]
molecule = "O=S(=O)(Nc1ccnc2ccc(N3C[C@@H](F)C[C@@H]3c3cc(F)ccc3F)nc12)N1CC[C@H](O)C1"
measurement_target = "recombinant human TRKA (G667C) (Homo sapiens, UniProt P04629, G667C)"
endpoint_value = "> 8.00"

[[record]]
molecule = "CC1(C)CC(n2cc(-c3ccnc4ccc(N5CCC[C@@H]5c5cc(F)ccc5F)nc34)cn2)CCN1 (stereo partly shown)"
measurement_target = "recombinant human TRKA (G667C) (Homo sapiens, UniProt P04629, G667C)"
endpoint_value = "> 7.30"

[[record]]
molecule = "Fc1ccc(F)c([C@H]2C[C@H](F)CN2c2ccc3ncc(Cl)c(-c4cnc(N5CCOCC5)s4)c3n2)c1"
measurement_target = "recombinant human TRKA (G667C) (Homo sapiens, UniProt P04629, G667C)"
endpoint_value = "> 8.00"

[[record]]
molecule = "CC(C)(O)Cn1cc(-c2c(Cl)cnc3ccc(N4C[C@@H](F)C[C@@H]4c4cc(F)ccc4F)nc23)cn1"
measurement_target = "recombinant human TRKA (G667C) (Homo sapiens, UniProt P04629, G667C)"
endpoint_value = "> 8.00"

[[record]]
molecule = "O[C@H]1CCN(c2ccc(-c3c(Cl)cnc4ccc(N5C[C@@H](F)C[C@@H]5c5cc(F)ccc5F)nc34)cn2)C1"
measurement_target = "recombinant human TRKA (G667C) (Homo sapiens, UniProt P04629, G667C)"
endpoint_value = "> 8.00"


Q. # pIC50 lookup, item `CN1CCC(n2cc(-c3ccnc4ccc(N5C[C@@H](F)C[C@@H]5c5cc(F)ccc5F)nc34)cn2)CC1`
A. > 8.00

Q. Another: `Fc1ccc(F)c([C@H]2C[C@H](F)CN2c2ccc3ncc(F)c(-c4noc(C5CCNCC5)n4)c3n2)c1`
A. > 8.00

Q. Another: COC1(C)CC(n2cc(-c3c(Cl)cnc4ccc(N5C[C@@H](F)C[C@@H]5c5cc(F)ccc5F)nc34)cn2)C1 (stereo partly shown)
A. > 7.30

Q. Another: `O[C@H]1CCN(c2ccc(-c3ncnc4ccc(N5C[C@@H](F)C[C@@H]5c5cc(F)ccc5F)nc34)cn2)C1`
A. > 8.00

Q. Another: `O[C@H]1CN=C(Nc2ccnc3ccc(N4C[C@@H](F)C[C@@H]4c4cc(F)ccc4F)nc23)OC1`
A. > 9.00
